Test system: Mus musculus
assay remarks: Antidepressant activity in mouse assessed as potentiation of (+/-)Dopa-induced motor responses at 5 mg/kg, po challenged with Dopa after 4 hrs compound treatment
Type: functional, organism-based
Set-up: dose 5 mg/kg
Activity calls are given as the source filed them. The rule behind the calls is not given here.

| compound | Activity |
| --- | --- |
| CCCCCC(C)C(C)c1cc(OCC2CC2)c2c(c1)OC(C)(C)c1ccncc1-2 (stereo not drawn) | Active |
| CCCCCC(C)C(C)c1cc(O)c2c(c1)OC(C)(C)c1cc[n+]([O-])cc1-2 (stereo not drawn) | Active |
| CC(CCCc1ccc(F)cc1)c1cc(O)c2c(c1)OC(C)(C)c1cc[n+]([O-])cc1-2 (stereo not drawn) | Active |
| CC(CCCc1ccc(F)cc1)c1cc(O)c2c(c1)OC(C)(C)c1ccncc1-2 (stereo not drawn) | Active |
| C#CCOc1cc(C(C)C(C)CCCCC)cc2c1-c1cnccc1C(C)(C)O2 (stereo not drawn) | Active |
| CCCCCC(C)C(C)c1cc(OC(=O)CCCN2CCCCC2)c2c(c1)OC(C)(C)c1ccncc1-2.Cl (stereo not drawn) | Active |
| C#CCN1CCC2=C(C1)c1c(O)cc(C(C)CCCc3ccc(F)cc3)cc1OC2(C)C (stereo not drawn) | Active |
| C#CCN1CCC2=C(C1)c1c(O)cc(C(C)C(C)CCCCC)cc1OC2(C)C (stereo not drawn) | Active |

---

Tested on: Felis catus
assay remarks: Sedative-hypnotic activity in cat assessed as change in total sleep time at 5 mg/kg, po after 12 hrs
Format: functional
Entries and their Time

| molecule | Time (min) |
| --- | --- |
| CCCCCC(C)C(C)c1cc(OCCCN2CCCCC2)c2c(c1)OC(C)(C)c1ccncc1-2.Cl (stereo not given) | -153 |
| C#CCOc1cc(C(C)C(C)CCCCC)cc2c1-c1cnccc1C(C)(C)O2 (stereo not given) | 114 |
| CCCCCC(C)C(C)c1cc(OCCCN2CCOCC2)c2c(c1)OC(C)(C)c1ccncc1-2.Cl (stereo not given) | -11 |
| CCCCCC(C)C(C)c1cc(OC)c2c(c1)OC(C)(C)c1ccncc1-2 (stereo not given) | 102 |
| COc1cc(C(C)CCCc2ccc(F)cc2)cc2c1-c1cnccc1C(C)(C)O2 (stereo not given) | 121 |

---

System: Rattus norvegicus
assay remarks: Antipsychotic activity in Long-Evens rat assessed as reduction in methamphetamine-induced hyperactivity at 5 mg/kg, po
Type: functional
Reported inhibition in vivo at 5 mg/kg values for the following compounds.

| compound | scale unit | inhibition in vivo at 5 mg/kg |
| --- | --- | --- |
| CCCCCC(C)C(C)c1cc(O)c2c(c1)OC(C)(C)c1ccncc1-2 (centres undefined) | % | 61 |
| C#CCN1CCC2=C(C1)c1c(O)cc(C(C)C(C)CCCCC)cc1OC2(C)C (centres undefined) | % | 59 |
| C#CCN1CCC2=C(C1)c1c(O)cc(C(C)CCCc3ccc(F)cc3)cc1OC2(C)C (centres undefined) | % | 25 |
| CCCCCC(C)C(C)c1cc(OC(=O)CCCN2CCCCC2)c2c(c1)OC(C)(C)c1ccncc1-2.Cl (centres undefined) | % | 40 |

---

System: Rattus norvegicus
assay remarks: Antianxiety activity in Long-Evens rat assessed as decrease in motor activity at 5 mg/kg, po by tranquilizer activity test
Assay type: functional

| compound | measurement target | inhibition in vivo at 5 mg/kg / % |
| --- | --- | --- |
| CC(CCCc1ccc(F)cc1)c1cc(O)c2c(c1)OC(C)(C)c1cc[n+]([O-])cc1-2 (stereo not drawn) | Rattus norvegicus | 18 |
| CCCCCC(C)C(C)c1cc(OC(=O)CCCN2CCCCC2)c2c(c1)OC(C)(C)c1ccncc1-2.Cl (stereo not drawn) | Rattus norvegicus | 43 |
| CCCCCC(C)C(C)c1cc(OC(=O)OCC)c2c(c1)OC(C)(C)c1ccncc1-2 (stereo not drawn) | Rattus norvegicus | 93 |
| CCCCCC(C)C(C)c1cc(OC(C)=O)c2c(c1)OC(C)(C)c1ccncc1-2 (stereo not drawn) | Rattus norvegicus | 86 |
| CCCCCC(C)C(C)c1cc(O)c2c(c1)OC(C)(C)c1cc[n+]([O-])cc1-2 (stereo not drawn) | Rattus norvegicus | 14 |
| CC(CCCc1ccc(F)cc1)c1cc(O)c2c(c1)OC(C)(C)c1ccncc1-2 (stereo not drawn) | Rattus norvegicus | 34 |
| C#CCOc1cc(C(C)C(C)CCCCC)cc2c1-c1cnccc1C(C)(C)O2 (stereo not drawn) | Rattus norvegicus | 27 |
| CCCCCC(C)C(C)c1cc(O)c2c(c1)OC(C)(C)c1ccncc1-2 (stereo not drawn) | Rattus norvegicus | 79 |
